Experiment: Cytotoxicity in macrophage cell line by the MTT method (colorimetric)
Format: cell-based
Conditions: mouse, Raw 264.7 macrophage cell line; Raw 264.7, MTT, 48 h; read-out: Colorimetric CC50 μM (SE)

COMPOUND | RESULT COMPARATOR | CC50 at 48 h (µM)
O=c1c(O)c(-c2ccccc2)oc2cc(O)cc(O)c12 | = | 22.8
O=C(O[C@@H]1Cc2c(O)cc(O)cc2O[C@@H]1c1cc(O)c(O)c(O)c1)c1cc(O)c(O)c(O)c1 [EGCG, (-)-epigallocatechin gallate, reference compound] | = | 194
O=c1c(O)c(-c2ccc(O)c(O)c2)oc2cc(O)ccc12 | = | 52.6
O=c1c(O)c(-c2ccc(O)cc2O)oc2cc(O)cc(O)c12 | > | 230

----------
System: intracellular amastigotes of L. (L.) amazonensis
Test: Microscopic assay, counting intracellular amastigotes in Raw 264.7 macrophages at the optic microscope
Assay type: cell-based, Leishmania (Leishmania) amazonensis
Details: CC50 for macrophages/IC50 for Leishmania (intracellular amastigotes; Ma from fluorescence IC50)
METRIC NAME: SI (Selectivity index)

MOLECULE | ASSAYED SYSTEM | METRIC NAME | RESULT COMPARATOR | MEASURED VALUE
O=c1c(O)c(-c2ccccc2)oc2cc(O)cc(O)c12 | intracellular amastigotes of L. (L.) amazonensis | SI (Selectivity index) | = | 1.1
C[C@@H]1O[C@@H](OC[C@H]2O[C@@H](Oc3c(-c4ccc(O)c(O)c4)oc4cc(O)cc(O)c4c3=O)[C@H](O)[C@@H](O)[C@@H]2O)[C@H](O)[C@H](O)[C@H]1O | intracellular amastigotes of L. (L.) amazonensis | SI (Selectivity index) | > | 1.8
O=c1c(O)c(-c2ccc(O)c(O)c2)oc2cc(O)ccc12 | intracellular amastigotes of L. (L.) amazonensis | SI (Selectivity index) | < | 1
O=c1c(O)c(-c2ccc(O)cc2O)oc2cc(O)cc(O)c12 | intracellular amastigotes of L. (L.) amazonensis | SI (Selectivity index) | > | 1.8
O=C(O[C@@H]1Cc2c(O)cc(O)cc2O[C@@H]1c1cc(O)c(O)c(O)c1)c1cc(O)c(O)c(O)c1 [EGCG, (-)-epigallocatechin gallate, reference compound] | intracellular amastigotes of L. (L.) amazonensis | SI (Selectivity index) | = | 1.5

----------
The entries below are paired with their reported pIC50.
System: promastigotes of L. amaz/tc3
Assay: Fluorescence assay against promastigotes of L. amaz/tc3 (tdTomato)
Type: cell-based, Leishmania (Leishmania) amazonensis
Settings: Leishmania, 48 h, read-out: IC50 against promastigotes of L. amaz/tc3
pIC50: −log10 of the molar value.

MOLECULE | ASSAYED SYSTEM | pIC50
O=C(O[C@@H]1Cc2c(O)cc(O)cc2O[C@@H]1c1cc(O)c(O)c(O)c1)c1cc(O)c(O)c(O)c1 [EGCG, (-)-epigallocatechin gallate, reference compound] | promastigotes of L. amaz/tc3 | 3.92
N=C(N)c1ccc(OCCCCCOc2ccc(C(=N)N)cc2)cc1 [PE, Pentamidine isethionate, reference compound] | promastigotes of L. amaz/tc3 | 6.17
O=c1c(O)c(-c2ccccc2)oc2cc(O)cc(O)c12 | promastigotes of L. amaz/tc3 | 4.27

----------
Assay: Cytotoxicity in macrophage cell line by the MTT method (colorimetric)
Format: cell-based
Conditions: mouse

SMILES STRUCTURE | CC50 at 48 h
C[C@@H]1O[C@@H](OC[C@H]2O[C@@H](Oc3c(-c4ccc(O)c(O)c4)oc4cc(O)cc(O)c4c3=O)[C@H](O)[C@@H](O)[C@@H]2O)[C@H](O)[C@H](O)[C@H]1O | > 240 µM
